binders and their reported relative MFI (fold over isotype control)
- system_under_test: Chimeric OX40 construct 1545 (human; mouse) (UniProt P43489)
- Sequence (P43489 other isoform, or with tags, fused parts or gaps mutant, form in doubt): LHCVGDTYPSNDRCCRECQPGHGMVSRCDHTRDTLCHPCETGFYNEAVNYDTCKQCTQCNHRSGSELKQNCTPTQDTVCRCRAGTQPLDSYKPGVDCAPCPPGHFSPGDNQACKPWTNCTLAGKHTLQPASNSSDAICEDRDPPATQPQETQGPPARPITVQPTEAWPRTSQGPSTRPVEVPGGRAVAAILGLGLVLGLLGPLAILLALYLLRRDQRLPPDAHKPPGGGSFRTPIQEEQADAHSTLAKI
- measurement_description: flow cytometry, 293-F cells transfected with the construct
test_readout: relative MFI (fold over isotype control)

• 1166/1167 (antibody, V domains shown) VH: EVQLLESGGGLVQPGGSLRLSCAASGFTFGGYYMSWVRQAPGKGLEWVSAISGSGGSTYYADSVKGRFTISRDNSKNTLYLQMNSLRAEDTAVYYCARYDYASMDYWGQGTLVTVSS VL: DIQMTQSPSSLSASVGDRVTITCRASQSISSYLNWYQQKPGKAPKLLIYAASSLQSGVPSRFSGSGSGTDFTLTISSLQPEDFATYYCQQYYWYGLSTFGQGTKLEIK = 1
• 1524/1525 (antibody, V domains shown) VH: EVQLLESGGGLVQPGGSLRLSCAASGFTFGSYYMGWVRQAPGKGLEWVSSIGSYYGYTYYADSVKGRFTISRDNSKNTLYLQMNSLRAEDTAVYYCARHDYGALDYWGQGTLVTVSS VL: DIQMTQSPSSLSASVGDRVTITCRASQSISSYLNWYQQKPGKAPKLLIYAASSLQSGVPSRFSGSGSGTDFTLTISSLQPEDFATYYCQQYGPSGLFTFGQGTKLEIK = 0.9
• 1514/1515 (antibody, V domains shown) VH: EVQLLESGGGLVQPGGSLRLSCAASGFTFGYYYMSWVRQAPGKGLEWVSGISSYGSYTYYADSVKGRFTISRDNSKNTLYLQMNSLRAEDTAVYYCARSGYSNWANSFDYWGQGTLVTVSS VL: DIQMTQSPSSLSASVGDRVTITCRASQSISSYLNWYQQKPGKAPKLLIYAASSLQSGVPSRFSGSGSGTDFTLTISSLQPEDFATYYCQQGDYTLFTFGQGTKLEIK = 1.2
• 1526/1527 (antibody, V domains shown) VH: EVQLLESGGGLVQPGGSLRLSCAASGFTFSGYSMYWVRQAPGKGLEWVSGIGYSGYGTYYADSVKGRFTISRDNSKNTLYLQMNSLRAEDTAVYYCARYYFHDYAAYSLDYWGQGTLVTVSS VL: DIQMTQSPSSLSASVGDRVTITCRASQSISSYLNWYQQKPGKAPKLLIYAASSLQSGVPSRFSGSGSGTDFTLTISSLQPEDFATYYCQQYGSDSLLTFGQGTKLEIK = 1.3
